I'd be grateful if you could share measured protein stability index for these entries.
experiment_summary: protein stability index of a GFP-peptide fusion (yeast GPS) (PSI 1-4); higher = more stable; sorted into four equal gates, so the index is relative within each strain
assay_setup: pdr5∆
Give bare numbers.

Worked examples follow.
{"sequence_input": "RNDSTVNDSVISAPSME [BRN1]", "reported_metric": "protein stability index", "result": 2.95}
{"sequence_input": "IVVVIEIITSLSMRFQR [SRB8]", "reported_metric": "protein stability index", "result": 2.71}
{"sequence_input": "TRSQFCLNTQRGDSTET [RRI1]", "reported_metric": "protein stability index", "result": 3.32}
{"sequence_input": "TIRTRKVISNPLLARKQ [RPS24A]", "reported_metric": "protein stability index", "result": 1.88}
{"sequence_input": "EGLSAQIAFDLVSSASQ [RPN2]", "reported_metric": "protein stability index", "result": 3.05}

Report protein stability index for each item below.
1. YLIKLLGFEVKDQALIG [SIR2]
2. CFDSTTGRDAGFGILED [RRP40]
3. AETIILSSAGKNSSVSS [SRB5]

(A)
1. 2.08
2. 3.24
3. 2.17

* * *

experiment_summary: protein stability index of a GFP-peptide fusion (yeast GPS) (PSI 1-4); higher = more stable; sorted into four equal gates, so the index is relative within each strain
assay_setup: ubr1∆
reported_metric: protein stability index
Numbers only.

The following sequences have reported results that may help.
{"sequence_input": "EVTEEQAEATEWAEENA [RPS0A]", "protein stability index": 3.62}
{"sequence_input": "TVYSSEQYIQELDKRED [SMC3]", "protein stability index": 3.47}
{"sequence_input": "YEEFRDVAIENNTLSRY [RRP43]", "protein stability index": 3.2}
{"sequence_input": "LSSYQKKIIKCDEHMGL [PRE5]", "protein stability index": 2.71}
{"sequence_input": "PWCVKPEYLAMYGLTME [ITC1]", "protein stability index": 2.07}

Lab note: each sequence below needs its protein stability index filled in.
1. DKKHFNNKNKRVTGAGG [RPC53]
2. RVHDQPLIWQLLQSSII [POP3]
3. IKIGIRVMKSLSINEKD [YCG1]
4. EYEKRNHGGSLGKYDLT [SRP68]
5. NANTGFSFGGTQTGQNT [YGL172W/NUP49]
6. DSENNEENSSSNGNNLP [RGR1]

(A)
[3.31, 1.7, 1.56, 1.3, 3.49, 3.06]

* * *

experiment_summary: protein stability index of a GFP-peptide fusion (yeast GPS) (PSI 1-4); higher = more stable; sorted into four equal gates, so the index is relative within each strain
assay_setup: doa10∆
reported_metric: protein stability index
Give bare numbers.

Before answering, review these 5 worked examples.
{"sequence_input": "STKIIMLLLNDSVENSS [SRB8]", "result": 2.63}
{"sequence_input": "RNSNPENTVGLISGAGA [RPN10]", "result": 2.93}
{"sequence_input": "NNTTPSSTGNANTSNNL [YJL041W/NSP1]", "result": 3.34}
{"sequence_input": "EVSTSTSMTGDANLLEE [SWI3]", "result": 3.09}
{"sequence_input": "SSLIKAGLDKGISINNM [RPO31]", "result": 2.65}

// for each sequence below, give its protein stability index
1. SYDFLPLSNIKALLFFN [RPN12]
2. VLSINPDMYERKVENIR [MED7]
3. HVNKRKRVSGTSQHSDS [YOR098C/NUP1]
4. NVTLVNGKRRMNPGPSV [RPS30A]
5. LKALSHHYNPKTKKLNL [BRR2]
6. VIDLEKIKFDESSKLMT [BRR2]

(A)
[2.14, 2.81, 1.93, 2.37, 2.46, 1.27]

Consider the following items and state reported protein stability index for each.
1. SGHFSTDSRTGQSTILV [CDC53]
2. DGHYIEENSQGNILDFN [REC8]
3. IAQSKKKNNKIKESSKK [SRP21]
4. PRGTAKLIIHRKNDNAN [SMC3]
5. FNSFRRFKSQFLYVLIP [QCR8]

(A)
1. 2.83
2. 3.23
3. 3.09
4. 1.68
5. 1.63

* * *

experiment_summary: protein stability index of a GFP-peptide fusion (yeast GPS) (PSI 1-4); higher = more stable; sorted into four equal gates, so the index is relative within each strain
assay_setup: doa10∆
Threshold check on protein stability index: at or above 3 gives met, strictly below gives not met.

Consider the following illustrative entries.
{"sequence_input": "EILRIHSRKMNLTRGIN [RPT6]", "class": "not met"}
{"sequence_input": "HGSISPQEESVSPNISS [SIR3]", "class": "not met"}
{"sequence_input": "GKIVGFDEFMNVVIDEA [SME1]", "class": "met"}
{"sequence_input": "ELIIDPLFKKALVDFDE [BRN1]", "class": "met"}

(Q) For this sequence, is measured protein stability index 3 or higher? PINLQNGEEDEVALFSQ [YLR335W/NUP2]
(A) met

(Q) One more sequence: DYKTAFSYFFESFESYH [RPN6]
(A) not met

* * *

experiment_summary: protein stability index of a GFP-peptide fusion (yeast GPS) (PSI 1-4); higher = more stable; sorted into four equal gates, so the index is relative within each strain
assay_setup: ubr1∆
Can you tell me protein stability index for the items I'm about to list?
Numbers only.

{"sequence_input": "MAESHRLYVKGKHLSYQ [RPL33A]", "protein stability index": 2.62}
{"sequence_input": "NINATNTSVLMKLKLMI [YCS4]", "protein stability index": 2.24}
{"sequence_input": "SPPIIDLFSNNNYNSRI [MED1]", "protein stability index": 2.94}
{"sequence_input": "IHNTKLPAYSGEIGDFF [POP1]", "protein stability index": 3.02}
{"sequence_input": "TSTVNRLNTVTRVHQLM [MCD1]", "protein stability index": 2.57}

Below are 4 sequences. Give each one its protein stability index.
1. KYIGEGSRMVRELFVMA [RPT6]
2. NIVHNFKERQMMVSYPK [AAR2]
3. QANPTEESISKFPDMGS [RPB5]
4. HSRILPKKALKVKAGVR [RRP43]

(A)
1. 1.89
2. 2.19
3. 3.26
4. 1.6

Batch: protein stability index for all items listed.
1. TGATSLFGSSNNNNNNN [YGL172W/NUP49]
2. PGFDEFQLIDMKDKEIN [CSI1]
3. SVRLQRFYQLGVDLKLK [CSN12]
4. GEVVYLRKQKDSSTTSS [ITC1]
5. NISIITLELESFLEGSK [RGR1]
6. TPSTSSNGEFIPHIFYS [CSE2]
7. PIDNNIIFASTKLGFTF [SNU114]

(A)
[2.42, 3.45, 3.06, 2.23, 2.94, 2.82, 2.67]

* * *

experiment_summary: protein stability index of a GFP-peptide fusion (yeast GPS) (PSI 1-4); higher = more stable; sorted into four equal gates, so the index is relative within each strain
assay_setup: ubr1∆
reported_metric: protein stability index
Numbers only.

{"sequence_input": "DSLRKLYVDSESTSSTE [MTW1]", "protein stability index": 3}

Batch request: protein stability index for each of the following sequences.
1. DIAGQRDDALVVETITS [RRP42]
2. QESLLSRTFDKYSKLVD [SRP72]

(A)
2.56
2.7

* * *

experiment_summary: protein stability index of a GFP-peptide fusion (yeast GPS) (PSI 1-4); higher = more stable; sorted into four equal gates, so the index is relative within each strain
assay_setup: ubr1∆
reported_metric: protein stability index
One number for each entry.

Worked set:
{"sequence_input": "EQTCVKLLDSGCENPAD [SRP72]", "result": 3.46}
{"sequence_input": "IDLLLLGQERATDLAGP [PRP8]", "result": 2.29}
{"sequence_input": "KPNQTIMVLDASIGQAA [SRP54]", "result": 2.64}
{"sequence_input": "TQEIRPVNTGVLHVSAK [RRP40]", "result": 3.01}
{"sequence_input": "RDMTYSAPIYVDIEYTR [RET1]", "result": 1.81}
{"sequence_input": "KQQEQLEQQKQPTGLLK [YMR153W/NUP53]", "result": 3.15}

(Q) Which measured protein stability index value corresponds to TVINEQQREAVRQLYKG [RPL35A] ?
(A) 3.31

* * *

experiment_summary: protein stability index of a GFP-peptide fusion (yeast GPS) (PSI 1-4); higher = more stable; sorted into four equal gates, so the index is relative within each strain
assay_setup: san1∆
Output T for protein stability index not less than 2; output F otherwise.

Look over these answered cases.
{"sequence_input": "FPPNLEKGENPSCVYNL [UBP6]", "class": "F"}
{"sequence_input": "SIEVQSLPEFFTNRIPS [SWI3]", "class": "T"}
{"sequence_input": "DTTANNGKVQYFLRRQY [YJL039C/NUP192]", "class": "T"}
{"sequence_input": "KNSRVELQKIYDRHQSS [SMC4]", "class": "T"}

(Q) State whether the measured protein stability index reaches 2, counting equality as reaching it, for IMDELLSSIAERVRNFA [DIB1]
(A) T

(Q) Same question for LIKQVPRLLGPQLSKAG [RPL1A] please.
(A) F

(Q) Similarly, GAGGLNPFTSATSSTNA [YOR098C/NUP1] ?
(A) T

(Q) Another sequence: KLYDAKRYTSEGTRNRF [YMR129W/POM152]
(A) T

(Q) Moving on to NEDARAIFNNEFDSDDD [RPN4]
(A) T
